B1: ZNF207 (parent)
chain: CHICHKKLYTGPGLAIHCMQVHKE

# Variants of: B1
# method-description: protein stability index of a GFP-peptide fusion (GPS, HEK-293T) (PSI 1-6); higher = more stable;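 further: lentivirally expressed fusions sorted by FACS into six bins by GFP to DsRed ratio, PSI derived from sequencing read proportions per bin multiplied by bin number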
# conditions: c terminus: a fixed tail appended
measured-endpoint: protein stability index
The reply should be a number, written without any unit.

# count of solved cases: 5
[
  {
    "variant-descriptor": "H2E",
    "protein stability index": 3.07
  },
  {
    "variant-descriptor": "H5T",
    "protein stability index": 2.48
  },
  {
    "variant-descriptor": "T10S",
    "protein stability index": 3.31
  },
  {
    "variant-descriptor": "L14G",
    "protein stability index": 3.85
  },
  {
    "variant-descriptor": "C18I",
    "protein stability index": 2.06
  }
]

Read the next record carefully.
Query :: Supply protein stability index value. Item: `E24M`
Result :: 2.11
